Can you tell me half-life at 2 μM for the items I'm about to list?
Assay: Metabolic stability in liver microsomes, rat
Settings: rat, microsomes, pH 7.4
Counter-ions that a name gives are not always drawn.
Could you give me the number in min? Just the number is fine.

Reported half-life at 2 μM, compound [2H]C([2H])([2H])N(C)C[C@@H]1CN(S(=O)(=O)Cc2ccccc2)CC[C@@]1(O)c1cccc(OC)c1 [II-1hydrochloride] : ____
5.63

Reported half-life at 2 μM, compound [2H]C([2H])([2H])Oc1cccc([C@]2(O)CCN(C(=O)Cc3cc(F)c(F)cc3F)C[C@H]2CN(C([2H])([2H])[2H])C([2H])([2H])[2H])c1 [II-11hydrochloride] : ____
6.46

Reported half-life at 2 μM, compound [2H]C([2H])([2H])Oc1cccc([C@]2(O)CCN(S(=O)(=O)Cc3ccccc3)C[C@H]2CN(C([2H])([2H])[2H])C([2H])([2H])[2H])c1 [II-5hydrochloride] : ____
6.59

Reported half-life at 2 μM, compound [2H]C([2H])([2H])N(C)C[C@@H]1CN(C(=O)Cc2cc(F)c(F)cc2F)CC[C@@]1(O)c1cccc(OC)c1 [II-7hydrochloride] : ____
5.68

Reported half-life at 2 μM, compound [2H]C([2H])([2H])N(C[C@@H]1CN(C(=O)Cc2cc(F)c(F)cc2F)CC[C@@]1(O)c1cccc(OC)c1)C([2H])([2H])[2H] [II-9hydrochloride] : ____
5.55

Reported half-life at 2 μM, compound [2H]C([2H])([2H])N(C[C@@H]1CN(S(=O)(=O)Cc2ccccc2)CC[C@@]1(O)c1cccc(OC)c1)C([2H])([2H])[2H] [II-3hydrochloride] : ____
5.72

Reported half-life at 2 μM, compound COc1ccsc1CNCC[C@@]1(c2ccccn2)CCOC2(CCCC2)C1 [TRV-130, reference compound] : ____
1.61

Cited source for all entries: patent US12509421B2
